System: MALME-3M melanoma
Assay: NCI tumour cell line growth inhibition, 48 h
Entries and their log10(TGI) values follow.
Parameter value (number): base-10 log of TGI in µM.

Please review the entries below; each comes with its answer.
MOLECULE: O=c1ccc2nc(-c3ccccn3)nn(-c3ccccc3)c-2c1
log10(TGI): 0.53
//
MOLECULE: CCC(NC1=NCCO1)c1cccs1 (configuration not stated)
log10(TGI): 1.41
//
MOLECULE: Nc1ncc(-c2cccc(S(N)(=O)=O)c2)c2scc(-c3ccc(F)c(Cl)c3)c12
log10(TGI): 1.22
//
MOLECULE: C[C@@H](Nc1nc(Nc2ccc(F)c(Cl)c2)nc2ccccc12)C1CC1
log10(TGI): 0.56
//
MOLECULE: COc1cc2c3c(n(C)c(=O)c2cc1OC)-c1cc2c(cc1/C3=C\CCNCCCN)OCO2
log10(TGI): 0.60
//
MOLECULE: COc1ccc(-c2nn(-c3ccc(NC(=O)Nc4ccc(Cl)c(C(F)(F)F)c4)cc3)cc2-c2ccncc2)cc1Cl
log10(TGI): 0.71
//
MOLECULE: OC(CC(O)(C(F)(F)F)C(F)(F)F)c1ccc(C(O)CC(O)(C(F)(F)F)C(F)(F)F)cc1 (configuration not stated)
log10(TGI): 1.44
//
MOLECULE: CC1(C)CCc2c(c(N=Nc3ccc(F)cc3)c3ccccc3c2O)O1
log10(TGI): 1.84
//
MOLECULE: CCN(CC)CCNC(=O)c1cccc2nc3ccccc3nc12
log10(TGI): 1.39
//
MOLECULE: CCN(CC)C(=S)[S][Bi]([S]C(=S)N(CC)CC)[S]C(=S)N(CC)CC
log10(TGI): -0.50

// Input: `CCOC(=O)/C=C(\C(=O)OCC)n1ccc(=O)[nH]c1=O` . Output its log10(TGI) only.
1.38

Tell me log10(TGI) reported for CCC[CH2][Sn]1([CH2]CCC)[O]CC(C)[O]1 (configuration not stated)
0.35

State, in one line, measured log10(TGI) of `NC(=S)NN=C1CSSC1`
1.46

Please give the documented log10(TGI) of `O=C(c1ccccc1)c1c(C(F)(F)F)n([O-])c2ccc(C(F)(F)F)cc2[n+]1=O`
0.08

Please report the measured log10(TGI) for CCCCCCCCCCCCCC(=O)N(CCCCCCCCC)CC(O)C(O)C(OC1OC(CO)C(O)C(O)C1O)C(O)CO (configuration not stated)
1.55

Look up and state reported log10(TGI) for `COc1ccc(C2=NN=C3C(c4ccccc4)=Nc4ccccc4N3C2)cc1`
1.82
